Here, each record is paired with measured melting point data.

[
  {
    "molecule": "COc1ccc(C=CC(=O)O)cc1-c1cc2c(cc1OCCCCCCCO)C(C)(C)CCC2(C)C",
    "melting point": "105 to 107 °C"
  },
  {
    "molecule": "CCNc1c(C(=O)OCC)c(C)nc(Cl)c1[N+](=O)[O-]",
    "melting point": "36 to 37 °C"
  }
]

Which melting point value belongs to COC(=O)c1ncn(C2OC(COC(=O)c3ccccc3)C(OC(=O)c3ccccc3)C2OC(=O)c2ccccc2)n1 (stereo not given) ?
137 to 139 °C

melting point for CCCCCCCCC[C@]1(C)OO[C@@H]2C[C@H]1CC(=O)[C@@H]2C ?
39 °C

# get_value(readout='melting point', item= O=C1Nc2cccc(/C=C/c3ccccc3Cl)c2/C1=C/c1ccc[nH]1 )
257 to 258 °C

====

Reported values of melting point for individual entries

Before answering, review these 5 worked examples.
[
  {
    "compound": "CC1=C(c2ccc(C(=O)N3Cc4cccn4Cc4ccccc43)cc2)CCCC1",
    "melting point": "119 to 120 °C"
  },
  {
    "compound": "CSc1ccc(Cc2sc(NC(C)=O)nc2CCc2ccc(NC(=N)N)cc2)cc1",
    "melting point": "160 to 161 °C"
  },
  {
    "compound": "Cc1ccc(C)c(C(=O)c2c(S(C)(=O)=O)nn(-c3c(Cl)cc(C(F)(F)F)cc3Cl)c2N)c1",
    "melting point": "194 °C"
  },
  {
    "compound": "Nc1ccc2c(c1)C(=O)CCO2",
    "melting point": "136 to 137 °C"
  },
  {
    "compound": "O=C(NCC(=O)N(O)CCCP(=O)(O)O)OCc1ccccc1",
    "melting point": "101 to 105 °C"
  }
]

What measured melting point goes with CS(=O)(=O)c1ccc(-c2cnn(-c3cccc(Cl)c3)c(=O)c2SCc2ccco2)cc1 ?
140 to 149 °C

Suppose we examine the compound COc1cc(OC)c(-c2nccs2)cc1/C=C/C(=O)c1ccc(C(=O)O)cc1 ; what melting point value has been reported?
> 260 °C

Fill in: melting point of O=S1(=O)c2cccc3cccc(c23)N1CCCN1CCN(c2ccc(Cl)cc2)CC1 is ___
120 °C

Value lookup for melting point; key = C=CCOc1ccc(Cl)c2oc(Cc3ccc(OC)cc3)c(C)c12
90 to 93 °C

====

Known melting point of a selection of molecules

[
  {
    "molecule": "O=C(O)Cc1ccc(NC(=O)C(COc2ccc(Cl)cc2)NS(=O)(=O)c2ccc(F)cc2)cc1 (racemic)",
    "valueReported": "184 to 186 °C"
  }
]

Can you share its melting point? I mean this molecule: CCOC(=O)c1c(Cl)nn(C)c1S(=O)(=O)NC(=O)OC
107 to 110 °C

What melting point value was documented for this molecule, O=C(c1ccc(-c2ccccc2)cc1)N1Cc2ccccc2Oc2ccccc21 ?
93 to 95 °C

// melting point lookup, key: CC(=O)Nc1cccc(C=C2C(=O)c3ccccc3OC2c2ccccc2)c1 (stereo not given)
172 to 173 °C

Quick check: melting point of OCc1cn(-c2ccc(Cl)c(Cl)c2)cn1 ?
146 to 147 °C

Quick one: melting point for O=C1CCC(N2Cc3c(OCc4ccc(CNC5CCOCC5)cc4)cccc3C2=O)C(=O)N1 (stereo not given) ?
231 to 233 °C

Fill in the blank: the reported melting point of Cn1nc(NC(=O)Nc2ccccc2)nc1NCCCOc1cccc(CN2CCCCC2)c1 is ____.
137 to 139 °C
